experimental-protocol: NCI Yeast Anticancer Drug Screen. Data for the mec2-1 strain (AID 157)
run-conditions: S. cerevisiae mec2-1 strain, at 50.0 µM (retest, dose inferred, filed as 5.0), stronger effect = higher value
The panel holds about 79,000 compounds, 15% with a hit somewhere; the sample as a whole holds those more often.
measured-endpoint: growth inhibition (%)
The answer is to be given in %; state only the numeric part.

Complete the entry with growth inhibition for NC(N)=N/N=C(\c1ccc(F)cc1)c1ccc(C(F)(F)F)cc1
96

Hello, please tell me recorded growth inhibition for this one: O=C1CCCCO1
-3

Report growth inhibition, nothing else, for this compound: OC(c1cc(-c2ccccc2)nc2c(Cl)cc(Cl)cc12)C1CCCCN1 (stereo not given)
92

Quick one: give measured growth inhibition for CC(=O)OCC1OC(OC2CCCc3c(O)c4c(c(O)c32)C(=O)c2ccccc2C4=O)C(OC(C)=O)C(OC(C)=O)C1OC(C)=O (stereo not given)
98

Look up growth inhibition of COc1cc(Cc2n[nH]c(=S)n2-c2ccccc2)c(S(=O)(=O)N2CCOCC2)cc1OC and report it.
-5

In one line, give reported growth inhibition of the entry CC(=O)OCC1OC(n2c(O)c(N=NC(N)=S)c3ccc([N+](=O)[O-])cc32)C(OC(C)=O)C1OC(C)=O (stereo not given) .
47

Tell me measured growth inhibition for CN(C)CCOC(=O)C1(CCC2CCCCC2)CCCCC1 please.
17

Give the reported growth inhibition for this compound. COC(=O)/C(C#N)=C(/SC)N(C)C
15

Determine from records and report growth inhibition for CC(C)(C)C1CCC2c3c([nH]c4ccccc34)C3C(=O)N(c4ccc(C(=O)O)cc4)C(=O)C3C2C1 (stereo not given)
99

Identify growth inhibition associated with the compound COc1ccc(CSC2=C(C#N)C(=O)NC3(CCCCC3)S2)cc1
4

Identify measured growth inhibition associated with O=C1c2ccccc2-c2nnc3c(c21)Cc1ccccc1C3
16

For the compound CC(=O)O[C@@H]1CO[C@H]2O[C@H]3[C@@H](C(C=O)=C[C@H](O)[C@@H]4C5=C(C(C)C)CC[C@]5(C)CC[C@@]34C)[C@@]2(O)C1=O , report growth inhibition.
100

Return growth inhibition for the following compound: COc1cccc2c1C(=O)c1c(O)c3c(c(O)c1C2=O)CC(O)(C(C)=O)CC3OC1CC(NCC2(O)OCC(O)C2O)C(O)C(C)O1 (stereo not given)
98

Entry O=C(CCN1CCN(c2cccc(Cl)c2)CC1)N1CCc2c([nH]c3ccccc23)C1c1cccnc1 (stereo not given) needs its growth inhibition filled in; supply it.
10

Identify measured growth inhibition corresponding to CCCCC(=O)c1nc(N(CC2CCCCC2)C(=O)NC)sc1N
35

Fill in reported growth inhibition for this entry: Cc1ccc(S(=O)(=O)CC2(Br)CCc3ccccc3C2=O)cc1 (stereo not given)
15

Look up growth inhibition of N#C/C(=C/c1ccc([N+](=O)[O-])o1)c1ccccc1 and report it.
-7

Tell us which growth inhibition value is on record for CCCCCCCCCC(C)CC(=O)NCCCN(C)CCCCN(C)C (stereo not given) (tested in a mixture with another compound)
68

Answer with reported growth inhibition of O=C1c2ccccc2Cc2cc(O)ccc21
92

Find the measured growth inhibition of Cc1cnc2cccc(Cl)c2c1Cl and report it.
11

###

experimental-protocol: NCI Yeast Anticancer Drug Screen. Data for the bub3 strain (AID 167)
run-conditions: S. cerevisiae bub3 mutant strain, at 50.0 µM
Compounds without any hit were thinned out: in the full panel of roughly 79,000, 15% have a hit. Calls of active or inactive are those of the source. No stated cut-off is given here; in the data, active means growth inhibition above about 70%; inactive means the rest.
Respond using exactly one of the listed classes: class 1 for active, class 0 for inactive

Some solved entries appear below for comparison.
COc1ccc2[nH]c3ccc4cc[n+](CCN5CCC(C6CCN(CC[n+]7ccc8ccc9[nH]c%10ccc(OC)cc%10c9c8c7)CC6)CC5)cc4c3c2c1	class 1
O=C1OC(=O)C2C(c3ccccc3)=C(c3ccccc3)C(c3ccccc3)=C(c3ccccc3)C12 (stereo unspecified)	class 0
COc1cc2c[n+](C)c3c4ccccc4ccc3c2cc1OC (tested in a mixture with another compound)	class 0
COC(=O)C1(Cc2ccc3c(c2)CCC3)Cc2ccc3c(c2C1O)CCC3 (stereo unspecified)	class 1
Cc1c2ccccc2c(C)n2c1nc1cc(Cl)c(Cl)cc12	class 1

Would you mind telling me which call this test gave N#C/C(=C\c1ccc(Cl)cc1Cl)C(N)=S ?
class 1

Hi team, can someone confirm the assay call for COc1ccc(C2C3CCCC(C(c4ccc(OC)cc4)N2C)C32NC(=O)NC2=O)cc1 (stereo unspecified) ?
class 1

Recorded test outcome, item CC(C)c1ccc(O)c(Cc2cc(C(C)C)ccc2O)c1
class 1

For C(=N\NC1=NCCN1)/c1cccc2cc3ccncc3nc12 , what call appears in the results of this test?
class 1

What outcome does the record of this test show for NNC(=S)N/N=C(/C(=O)Nc1ccc(Cl)c(Cl)c1)C(C1OC(=O)c2ccccc21)[N+](=O)[O-] (stereo unspecified) ?
class 0

Lab log entry: CN(C)c1ccccc1[CH2][Ga]([Cl])[CH2]c1ccccc1N(C)C — outcome as called in the assay?
class 1

GET /call?item= Cc1ccc(/C=C2\CCC/C(=C\c3ccc(O)c(CN4CCCCC4)c3)C2=O)cc1 returns the recorded outcome of this test.
class 0

Returns: the outcome recorded for CC1(C)[C@@H]2CC[C@]1(C)[C@@H](OC(=O)CSC#N)C2 in this assay.
class 1

For O=[N+]([O-])C1CCCC(C2=CSC3CCCCC3N2)C1 (stereo unspecified) , what call appears in the results of this test?
class 1

How did this test come out for CC(=O)O[C@@H]1c2c(c3c(=O)c4cccc(O)c4c(=O)c=3c2=[N+]=[N-])[C@H](OC(C)=O)[C@@H](OC(C)=O)[C@]1(C)O ?
class 1

Field: outcome | Entry: O=Cc1c(I)cc(I)c(O)c1I
class 1

Call for entry O=C(O)c1ccccc1-c1c2cc(I)c(=O)c(I)c-2oc2c(I)c(O)c(I)cc12 :
class 1

Recorded test outcome, item O=C(Oc1c(Cl)c(Cl)c(Cl)c(Cl)c1Cl)c1ccc(Cl)cc1
class 1

Assay outcome for Nc1nc(=Nc2ccccc2)ss1 : what was it?
class 0

Write down the call the test reported for this compound. Item: C/C(=N\NC(=S)N1CCN(C2CCCCC2)CC1)c1ccccn1
class 1

Could you kindly confirm the outcome this assay logged for Oc1ccccc1/C=N\N=C\c1ccccc1O ?
class 0
